Field: growth. Provide a value for each of the molecules that follow.
Tested on: CCRF-CEM leukemia
Assay: NCI-60 one-dose screen, 48 h (100 = growth as untreated, 0 = no growth, -100 = all killed)
Conditions: 10 µM unless noted
This is part of a sample that, as a whole, favours compounds with a hit. Of some 83,000 tested, about 20% had one in any assay. Active and inactive are the calls of the source. How the source made its calls: active means growth percent below 10; inactive means the rest.

Solved cases (3 shown):
O=C1C=CC(=O)N1c1ccccn1 | 105% (inactive)
COc1cc(/C=N/OC(=O)Nc2ccccc2)cc(OC)c1OC | 98.1% (inactive)
Cc1ccc(C(=O)Cc2ccccc2)c(O)c1 | 112% (inactive)

Would you mind giving growth for every molecule in the list below?
1. CCOC(=O)CNC(=O)C1(NC(=O)CNC(=O)OCc2ccccc2)CCCC1
2. Cc1n(Cc2ccc3ccccc3c2)c2ccccc2[n+]1Cc1ccc2ccccc2c1
3. COc1cc(-c2nc3sc4c(c3c(=O)[nH]2)CCCCCC4)cc(OC)c1OC
4. N#Cc1c(-c2ccc(F)cc2)n2c(nc1=O)SC(=O)C2=O

A.
102% (inactive)
-45.1% (active)
14.3% (inactive)
85.4% (inactive)

* * *

I'd be grateful if you could share measured growth for these entries.
Tested on: SK-MEL-5 melanoma
Assay: NCI-60 one-dose screen, 48 h (100 = growth as untreated, 0 = no growth, -100 = all killed)
Conditions: 10 µM unless noted
Compounds without any hit were thinned out: in the full panel of roughly 83,000, 20% have a hit. The source made the active and inactive calls. The calls were made as follows: active = growth percent below 10; inactive = the rest.

A selection of reference data follows.
CCCCCCCCCCOC(C)=O | 107% (inactive)
CCSc1nc(-c2cccs2)n2nc(-c3ccco3)cc2n1 | 86.5% (inactive)

// each listed compound needs a value for growth
1. O=C(O)c1ccc(CNS(=O)(=O)c2ccc3ccccc3c2)cc1
2. COc1cc(/C=C\C(C)=N\Nc2ccccc2)ccc1O
3. O=C(Nc1ccccc1)c1cc(-n2cnc([N+](=O)[O-])c2)cc(-n2cnc([N+](=O)[O-])c2)n1
4. COc1cc(NC(C)CCCN)c2nc(C)ccc2c1Oc1ccc(F)cc1 (stereo unspecified)
5. O=C(NCCCl)NCCN1c2nc3ccccc3cc2Sc2cc3ccccc3nc21
6. Cc1nn(-c2ccccc2)c2nc(N)c(C3=NCCO3)nc12

A.
1: 105% (inactive); 2: 95% (inactive); 3: 95.6% (inactive); 4: 86.2% (inactive); 5: 9.61% (active); 6: 97.4% (inactive)

The following compounds each have a reported value; give each one's growth.
1. CC(=O)Nc1cc2c3c(cccc3c1)-c1ccccc1-2
2. O=Cc1ccccc1C(=O)O

A.
1: 102% (inactive); 2: 101% (inactive)

Recorded result, O=C(Nc1nn2c(-c3cc(C(F)(F)F)cc(C(F)(F)F)c3)nnc2s1)C1CCCC1 , growth: -69.6% (active)

* * *

System: HCT-116 colon
Experiment: NCI-60 one-dose screen, 48 h
Details: 10 µM unless noted
Protocol: Growth inhibition of the HCT-116 human tumor cell line is measured as a screen for anti-cancer activity. Cells are grown in 96 well plates and exposed to the test compound for 48 hours. Compounds are tested at a single concentration, which is 10^-5 M for most compounds. The reported endpoint is percent growth (GI% or GIPRCNT), where numbers from 0 - 100% represent growth inhibition, and numbers from -100% - 0 represent cell death. For example, a value of 40 represents 60% growth inhibition. […]
About 83,000 compounds went through this panel and 20% of them were active in at least one assay; those are over-represented in the sample as a whole. Active and inactive are the calls of the source. How the source made its calls: active means growth percent below 10; inactive means the rest.
Outcome (select one): Y = active, N = inactive

Example cases with answers are listed next.
COc1cc2c(cc1OC)C(=O)/C(=C/c1cccc(OCC(=O)c3ccccc3)c1)C2 | N
COc1ccc(-c2cc(-c3nnc(SCC(=O)Nc4ccc(C(C)=O)cc4)n3-c3ccccc3)c3ccccc3n2)cc1OC | N
COC(=O)c1c(NC(=O)CSc2nnnn2-c2ccc(OC)cc2)sc(C)c1C | N
Cc1cc(C)c2c(N)c3cccc(C)c3nc2n1 | Y
Nc1ccccc1-c1ccn[nH]1 | N

Q. Which outcome did this test record for the compound COc1cc(C2=NN(C=O)C(c3cccc(Nc4ccnc5cc(Cl)ccc45)c3)C2)cc(OC)c1OC (stereo unspecified) ?
A. N

Q. What outcome does the record of this test show for CNCCCn1c2c(c3ccc(F)cc3c1=O)C(=O)c1cc(OC)cnc1-2 ?
A. Y

Q. # outcome recorded in this test, key = CC1c2ccccc2-c2ccccc2N1C (stereo unspecified)
A. N

Q. Tell me the assay call for Cc1nn2c(/C=C3/C(=O)Nc4cc(Cl)ccc43)c(-c3ccccc3)nc2s1 please.
A. Y

Q. # lookup: test call for O=C(/C=C/c1cccc(Nc2ccnc3cc(Cl)ccc23)c1)c1ccc(Cl)cc1
A. N

Q. What was the test verdict on CN(C)c1ccc(-n2nc3ccccc3n2)cc1 ?
A. N

Q. Call for entry CNc1nc(NC2CCCC2)nc(Sc2ccc(OC)cc2)n1 :
A. Y

Q. Kindly provide the recorded test outcome for the following compound: CN(C)c1ncnc2c1ncn2C1CCCCO1 (stereo unspecified)
A. N

Q. Fill in: this test's call for O=C(Nc1ccccc1)c1cc(-n2cnc([N+](=O)[O-])c2)cc(-n2cnc([N+](=O)[O-])c2)n1 is ___
A. N

Q. Field: outcome | Entry: O=C(Oc1ccccc1)C(Br)C(Br)c1ccccc1 (stereo unspecified)
A. N

* * *

Tested on: 786-0 renal
Assay: NCI-60 one-dose screen, 48 h
Conditions: 10 µM unless noted
About 83,000 compounds went through this panel and 20% of them were active in at least one assay; those are over-represented in the sample as a whole. Calls of active or inactive are those of the source. How the source made its calls: active means growth percent below 10; inactive means the rest.
Give one outcome, nothing more. List: yes (1) (active), no (0) (inactive)

C(=C1c2ccccc2-c2ccccc21)c1ccncc1 | no (0)
C1=C(Cc2ccccc2)n2cnc3ncnc(c32)S1 | no (0)
NS(=O)(=O)c1cc2c(cc1Cl)NC=NS2(=O)=O | no (0)

Q. Would you mind telling me which call this test gave C[C@@H]1CN(c2nc3c(cc2F)c(=O)c(C(=O)O)cn3C(C)(C)C)C[C@H](C)N1 ?
A. no (0)

Q. Record request — test call for COC(=O)[C@H](CCCCNC(=O)OCc1ccccc1)NC(=O)[C@@H](NC(=O)Nc1cc(C(F)(F)F)cc(C(F)(F)F)c1)C(C)C
A. yes (1)

Q. I'd appreciate the recorded outcome for COC(=O)C1=CCC(n2cnc3c(N)ncnc32)O1 (stereo not given) from this test.
A. no (0)

Q. What call does the record list for Cc1onc(-c2ccccc2Cl)c1C(=O)N[C@@H]1C(=O)N2[C@@H]1SC(C)(C)[C@@H]2C(=O)O ?
A. no (0)

* * *

System: HCC-2998 colon
Assay: NCI-60 one-dose screen, 48 h
Conditions: 10 µM unless noted
About 83,000 compounds went through this panel and 20% of them were active in at least one assay; those are over-represented in the sample as a whole. Activity calls are given as the source filed them. The calls were made as follows: active = growth percent below 10; inactive = the rest.
# valid calls are true (active), false (inactive); nothing else

Worked set:
C[C@H]1O[C@@H](O[C@H]2[C@@H](O)C[C@H](O[C@H]3[C@@H](O)C[C@H](O[C@H]4CC[C@]5(C)C6CC[C@]7(C)[C@@H](C8=CC(=O)OC8)CC[C@]7(O)C6CC[C@@H]5C4)O[C@@H]3C)O[C@@H]2C)C[C@H](O)[C@@H]1O (some centres undefined) | true
CCOC(=O)C1C(=O)NC(C(=O)OCC)(C(=O)OCC)C1CC (centres undefined) | false
COc1cccc(CCN2C(=O)CCC3=C2CCC3=O)c1 | false
Cc1ccc2nc(-c3ccc(N(C)C)c(Br)c3)cn2c1 | false
N=C1c2nc3n(c2C(=O)c2nc4n(c21)CCCCC4)CCCCC3 | false

Q. I'd appreciate the recorded outcome for N#Cc1ncc(-c2ccc(C(F)(F)F)cc2)c(NC2CCCCCC2)n1 from this test.
A. false

Q. Field: outcome | Entry: COc1ccc2c(c1)sc1nc(-c3ccc(N(C)C)cc3)cn12
A. false

Q. // param item: CCCCc1ccc(C(N)=O)nc1 ; yields the recorded call
A. false

Q. Each molecule tested received a call. Report the one for COc1cc(Cl)cc(-c2nn(-c3cccc(NC(=O)c4cc(C(F)(F)F)cc(C(F)(F)F)c4)c3)cc2-c2ccncc2)c1 .
A. false

* * *

Test system: COLO 205 colon
Test: NCI-60 one-dose screen, 48 h (100 = growth as untreated, 0 = no growth, -100 = all killed)
Settings: 10 µM unless noted
The panel holds about 83,000 compounds, 20% with a hit somewhere; the sample as a whole holds those more often.
assay-metric: growth (%)
Numbers only, in %.

Worked set:
C[C@@H]1[C@H]2[C@H](C=C3[C@@H]4CC[C@H]5Cc6nc7c(nc6C[C@]5(C)[C@H]4C[C@@H](O)[C@@]32C)C[C@@H]2CC[C@H]3C4=C[C@@H]5O[C@@]6(CC[C@](C)(CO)O6)[C@@H](C)[C@@]5(O)[C@@]4(C)[C@H](O)C[C@@H]3[C@@]2(C)C7)O[C@]12CCC(C)(C)O2 | -39.3
Nc1ccccc1-c1ccn[nH]1 | 86.6
N/C(=N\c1nc2ccccc2s1)NC(=O)Nc1ccccc1Cl | -44.4
CO[C@H]1/C=C/O[C@@]2(C)Oc3c(C)c(O)c4c(O)c(c(/C=N/N5C(C)CN(Cc6ccc(C#N)cc6)CC5C)c(O)c4c3C2=O)NC(=O)/C(C)=C\C=C\[C@H](C)[C@H](O)[C@@H](C)[C@@H](O)[C@@H](C)[C@H](OC(C)=O)[C@@H]1C (stereo partly drawn) | 1.58
COC(=O)Nc1ccc2ccc3c(NC(=O)OC)ccc4ccc1c2c43 (tested in a mixture with another compound) | 30.8

Consider the following items and state reported growth for each.
1. O=C1C(=O)c2c(nc3ccc(Cl)cn23)-c2ccccc21
2. CN1CCN(c2nc3scc(-c4ccccc4)c3c(=O)[nH]2)CC1

A.
-100
99

# growth of COc1ccc(C2=NN(C(C)=O)C(c3c(C)nn(-c4ccccc4)c3N3CCOCC3)C2)cc1 (stereo not drawn) = 90.9

Taken from PubChem BioAssay (NCI).
